Reference for the values: ChEMBL document CHEMBL3217729

- ASSAY REMARKS: Drug level in CD-1 mouse blood at 5 mg/kg, po administered as single dose measured for 24 hrs post-dose by LC-MS/MS analysis
- Type: ADME, organism-based
- Parameters: dose 5 mg/kg, route oral
- CONDITION DESCRIPTION: read-out: Drug uptake
MEASURED ENDPOINT: concentration at 24 h

[[record]]
compound = "CC(=O)CC[C@H]1C(=O)N[C@@H](C(C)C)C(=O)N[C@@H](Cc2cccc(O)c2)C(=O)N2CCCC(N2)C(=O)O[C@H](/C(C)=C/C=C/C(=O)N2CCCCO2)C/C=C/C=C/[C@H](O)[C@H](C)[C@H]1O (stereo partly specified)"
value_observed = "20 ng/mL"


====

- ASSAY REMARKS: in vitro
- CONDITION DESCRIPTION: mouse, liver microsomes
- Description: Half life in mouse liver microsomes at 1 uM by LC-MS/MS analysis
Items are presented alongside their recorded half-life at 1 µM.
MEASURED ENDPOINT: half-life at 1 µM

[[record]]
molecule = "CC(=O)CC[C@H]1C(=O)N[C@@H](C(C)C)C(=O)N[C@@H](Cc2cccc(O)c2)C(=O)N2CCCC(N2)C(=O)O[C@H](/C(C)=C/C=C/C(=O)N2CCCCO2)C/C=C/C=C/[C@H](O)[C@H](C)[C@H]1O (some centres undefined)"
value_observed = "5.8 min"

[[record]]
molecule = "C=CCNC(=O)/C=C/C=C(\\C)[C@@H]1C/C=C/C=C/[C@H](O)[C@H](C)[C@@H](O)[C@@H](CCC(C)=O)C(=O)N[C@@H](C(C)C)C(=O)N[C@@H](Cc2cccc(O)c2)C(=O)N2CCCC(N2)C(=O)O1 (stereo in doubt)"
value_observed = "10.6 min"

[[record]]
molecule = "CON(C)C(=O)/C=C/C=C(\\C)[C@@H]1C/C=C/C=C/[C@H](O)[C@H](C)[C@@H](O)[C@@H](CCC(C)=O)C(=O)N[C@@H](C(C)C)C(=O)N[C@@H](Cc2cccc(O)c2)C(=O)N2CCCC(N2)C(=O)O1 (some centres undefined)"
value_observed = "17.5 min"

[[record]]
molecule = "CC(=O)CC[C@H]1C(=O)N[C@@H](C(C)C)C(=O)N[C@@H](Cc2cccc(O)c2)C(=O)N2CCCC(N2)C(=O)O[C@H](/C(C)=C/C=C/C(=O)N2CCOCC2)C/C=C/C=C/[C@H](O)[C@H](C)[C@H]1O (some centres undefined)"
value_observed = "18 min"


====

- ASSAY REMARKS: Selectivity index, ratio of CC50 for human Huh5-2 cells to EC50 for Hepatitis C virus genotype 1b I389luc-ubi-neo/NS3-3'/5.1 subgenomic replicon infected in human Huh5-2 cells
- Type: toxicity, cell-based, Huh-5-2
- CONDITION DESCRIPTION: read-out: Ratio CC50/EC50
Items are presented alongside their recorded selectivity ratio.
MEASURED ENDPOINT: selectivity ratio

[[record]]
compound = "C=CCNC(=O)/C=C/C=C(\\C)[C@@H]1C/C=C/C=C/[C@H](O)[C@H](C)[C@@H](O)[C@@H](CCC(C)=O)C(=O)N[C@@H](C(C)C)C(=O)N[C@@H](Cc2cccc(O)c2)C(=O)N2CCCC(N2)C(=O)O1 (stereo in doubt)"
measured_endpoint = "selectivity ratio"
value_observed = 30

[[record]]
compound = "CCC[C@H](NC(=O)[C@@H]1[C@H]2CCC[C@H]2CN1C(=O)[C@@H](NC(=O)[C@@H](NC(=O)c1cnccn1)C1CCCCC1)C(C)(C)C)C(=O)C(=O)NC1CC1"
measured_endpoint = "selectivity ratio"
value_observed = "> 315"

[[record]]
compound = "CC(=O)CC[C@H]1C(=O)N[C@@H](C(C)C)C(=O)N[C@@H](Cc2cccc(O)c2)C(=O)N2CCCC(N2)C(=O)O[C@H](/C(C)=C/C=C/C(=O)N2CCOCC2)C/C=C/C=C/[C@H](O)[C@H](C)[C@H]1O (some centres undefined)"
measured_endpoint = "selectivity ratio"
value_observed = "> 72"

[[record]]
compound = "CON(C)C(=O)/C=C/C=C(\\C)[C@@H]1C/C=C/C=C/[C@H](O)[C@H](C)[C@@H](O)[C@@H](CCC(C)=O)C(=O)N[C@@H](C(C)C)C(=O)N[C@@H](Cc2cccc(O)c2)C(=O)N2CCCC(N2)C(=O)O1 (some centres undefined)"
measured_endpoint = "selectivity ratio"
value_observed = "> 617"


====

- ASSAY REMARKS: Solubility of the compound in phosphate buffered saline at pH 7.4 after 4 hrs by LC-MS/MS analysis
Items are presented alongside their recorded solubility at 4 h.
MEASURED ENDPOINT: solubility at 4 h (µM)

[[record]]
compound = "CC(=O)CC[C@H]1C(=O)N[C@@H](C(C)C)C(=O)N[C@@H](Cc2cccc(O)c2)C(=O)N2CCCC(N2)C(=O)O[C@H](/C(C)=C/C=C/C(=O)NC2CCCCC2)C/C=C/C=C/[C@H](O)[C@H](C)[C@H]1O (stereo in doubt)"
measured_endpoint = "solubility at 4 h"
unit_name = "µM"
result_comparator = "="
value_observed = 29

[[record]]
compound = "CC(=O)CC[C@H]1C(=O)N[C@@H](C(C)C)C(=O)N[C@@H](Cc2cccc(O)c2)C(=O)N2CCCC(N2)C(=O)O[C@H](/C(C)=C/C=C/C(=O)Nc2ccccn2)C/C=C/C=C/[C@H](O)[C@H](C)[C@H]1O (stereo in doubt)"
measured_endpoint = "solubility at 4 h"
unit_name = "µM"
result_comparator = "="
value_observed = 61

[[record]]
compound = "CC(=O)CC[C@H]1C(=O)N[C@@H](C(C)C)C(=O)N[C@@H](Cc2cccc(O)c2)C(=O)N2CCCC(N2)C(=O)O[C@H](/C(C)=C/C=C/C(=O)N(C)C2CCCCC2)C/C=C/C=C/[C@H](O)[C@H](C)[C@H]1O (stereo partly specified)"
measured_endpoint = "solubility at 4 h"
unit_name = "µM"
result_comparator = "="
value_observed = 48

[[record]]
compound = "CC(=O)CC[C@H]1C(=O)N[C@@H](C(C)C)C(=O)N[C@@H](Cc2cccc(O)c2)C(=O)N2CCCC(N2)C(=O)O[C@H](/C(C)=C/C=C/C(=O)Nc2ccncc2)C/C=C/C=C/[C@H](O)[C@H](C)[C@H]1O (stereo partly specified)"
measured_endpoint = "solubility at 4 h"
unit_name = "µM"
result_comparator = "="
value_observed = 15

[[record]]
compound = "CC(=O)CC[C@H]1C(=O)N[C@@H](C(C)C)C(=O)N[C@@H](Cc2cccc(O)c2)C(=O)N2CCCC(N2)C(=O)O[C@H](/C(C)=C/C=C/C(=O)Nc2cccnc2)C/C=C/C=C/[C@H](O)[C@H](C)[C@H]1O (stereo in doubt)"
measured_endpoint = "solubility at 4 h"
unit_name = "µM"
result_comparator = "="
value_observed = 18

[[record]]
compound = "CC(=O)CC[C@H]1C(=O)N[C@@H](C(C)C)C(=O)N[C@@H](Cc2cccc(O)c2)C(=O)N2CCCC(N2)C(=O)O[C@H](/C(C)=C/C=C/C(=O)N(C)C)C/C=C/C=C/[C@H](O)[C@H](C)[C@H]1O (stereo partly specified)"
measured_endpoint = "solubility at 4 h"
unit_name = "µM"
result_comparator = ">"
value_observed = 100

